- Test system: S. aureus A798
- measurement notes: Bacterial growth minimal inhibitory concentration (microdilution, cation-adjusted Mueller-Hinton Broth)
- Format: cell-based, Staphylococcus aureus
- experimental parameters: Staphylococcus aureus, A798; multiply-resistant strain (methicillin- and quinolone-resistant)
readout type: MIC (µg/mL)

INSERT INTO results (molecule, measured) VALUES
  ('NCCCCCOc1cccc(-c2cccc(CNCC[C@H]3CN(c4ccc5c(n4)NC(=O)CO5)C(=O)O3)c2)n1 [Example 20]', 0.5),
  ('C[C@@H]1CNC[C@H]1Oc1cccc(-c2cccc(CNCC[C@H]3CN(c4ccc5c(n4)NC(=O)CO5)C(=O)O3)c2)n1 (relative stereo) [Example $173]', 0.5),
  ('CN(C)CCOc1cccc(-c2cccc(CNCC[C@H]3CN(c4ccc5c(n4)NC(=O)CO5)C(=O)O3)c2)c1 [Example 2]', 0.5),
  ('CN1CC[C@@H](Oc2cccc(-c3cccc(CNCC[C@H]4CN(c5ccc6c(c5)NC(=O)CS6)C(=O)O4)c3)n2)C1 [Example $168]', 1),
  ('NCCOc1cc(-c2cccc(CNCC[C@H]3CN(c4ccc5c(n4)NC(=O)CO5)C(=O)O3)c2)ccn1.O=CO [Example 19]', 8),
  ('C[C@H]1NC[C@H]1Oc1cccc(-c2cccc(CNCC[C@H]3CN(c4ccc5c(n4)NC(=O)CO5)C(=O)O3)c2)n1 (mixture of isomers) [Example $135]', 0.5),
  ('CN1CC[C@@H]1COc1cccc(-c2cccc(CNCC[C@H]3CN(c4ccc5c(n4)NC(=O)CO5)C(=O)O3)c2)n1 [Example $125]', 0.5);
